Would you mind telling me the reported melting point of each entry?

{"columns": ["compound", "experimental_readout", "result"],
 "data": [
  ["O=C(O)c1ccccc1Oc1ccc2c(c1)CC[C@H](CNC[C@H](O)COc1ccc(F)cc1F)O2 [Example 40]", "melting point", "138 to 142 °C"],
  ["O=C(O)c1ccccc1Oc1ccc2c(c1)CC[C@H](CNC[C@H](O)COc1ccccc1N1CCOCC1)O2 [Example 42]", "melting point", "173 to 176 °C"],
  ["O=C(O)c1ccccc1Oc1ccc2c(c1)CC[C@H](CNC[C@H](O)COc1ccc(F)c(Cl)c1)O2 [Example 43]", "melting point", "196 to 199 °C"]
]}

Let us move to another entry and its melting point.
**Query** Query: melting point; subject: O=C(O)c1ccccc1Oc1ccc2c(c1)CC[C@H](CNC[C@H](O)COc1c(F)cccc1F)O2 [Example 41]
**Result** 196 to 198 °C
